# EXPERIMENT: Volume of distribution in Sprague-Dawley rat at 1 mg/kg, iv
# Format: ADME, organism-based
# Set-up: dose 1 mg/kg, route intravenous
# COND: in vivo, read-out: Vdss
A collection of compounds and their measured Vd
Answer with a number only, understood to be in L/kg.

INSERT INTO results (molecule, value_kind, numeric_value) VALUES
  ('O=c1c2nn(-c3ccccc3Cl)c(-c3ccc(Cl)cc3)c2ncn1CC(F)(F)F', 'Vd', 9.2);

Here is another compound to look at.
For the compound Cc1nc2c(-c3ccc(Cl)cc3)n(-c3ccccc3Cl)nc2c(=O)n1CC(F)(F)F , what Vd is on record?
7.7

* * *

# EXPERIMENTAL_TARGET: Cannabinoid receptor 1 (Homo sapiens)
# Sequence (P21554 whole entry): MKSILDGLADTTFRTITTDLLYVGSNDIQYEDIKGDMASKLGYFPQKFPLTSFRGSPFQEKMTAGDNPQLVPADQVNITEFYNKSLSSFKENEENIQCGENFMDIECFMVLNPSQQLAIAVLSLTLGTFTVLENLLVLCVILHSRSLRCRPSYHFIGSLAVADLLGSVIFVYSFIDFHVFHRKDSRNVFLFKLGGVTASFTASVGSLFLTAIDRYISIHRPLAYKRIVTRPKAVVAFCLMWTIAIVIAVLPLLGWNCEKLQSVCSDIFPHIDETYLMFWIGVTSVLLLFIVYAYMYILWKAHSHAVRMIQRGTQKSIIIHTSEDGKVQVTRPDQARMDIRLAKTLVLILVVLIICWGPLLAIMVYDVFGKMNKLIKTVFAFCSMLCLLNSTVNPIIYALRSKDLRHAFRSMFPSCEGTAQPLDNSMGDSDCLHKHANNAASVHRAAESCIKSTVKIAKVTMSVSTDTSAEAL
# EXPERIMENT: biochemical
# Format: cell-based, HEK293
Returns: string. Value is rule met if measured Ki is below 6 nM, and rule not met if it is greater than or equal to it.

INSERT INTO results (molecule, answer_label) VALUES
  ('O=c1c2nn(-c3ccccc3Cl)c(-c3ccc(Cl)cc3)c2cnn1CC(F)(F)F', 'rule not met'),
  ('O=c1c2nn(-c3ccccc3Cl)c(-c3ccc(Cl)cc3)c2ncn1N1CCCCC1', 'rule not met'),
  ('O=c1c2nn(-c3ccc(Cl)cc3)c(-c3ccccc3Cl)c2ncn1C1CCCCC1', 'rule not met'),
  ('O=c1c2nn(-c3ccccc3Cl)c(-c3ccc(Cl)cc3)c2ccn1CC(F)(F)F', 'rule met');

Attention now turns to another entry.
Consider O=c1c2nc(-c3ccccc3Cl)n(-c3ccc(Cl)cc3)c2ncn1CC(F)(F)F . Does its Ki lie strictly below 6 nM?
rule met

* * *

# EXPERIMENTAL_TARGET: UniProt P21554
# EXPERIMENT: Functional activity at human CB1 receptor transfected in CHOK1 cells by [35SGTP]gammaS assay
# Format: cell-based, CHO-K1
Returns: string. Value is Fulfilled if measured Ki is below 4 nM, and Not fulfilled if it is greater than or equal to it.

As a guide, the following entries are already answered.
INSERT INTO measurements (molecule, experimental_target, answer_label) VALUES
  ('CCc1nc2c(-c3ccc(Cl)cc3)n(-c3ccccc3Cl)nc2c(=O)n1CC(F)(F)F', 'UniProt P21554', 'Fulfilled'),
  ('CC(C)c1nc2c(-c3ccc(Cl)cc3)n(-c3ccccc3Cl)nc2c(=O)n1CC(F)(F)F', 'UniProt P21554', 'Not fulfilled'),
  ('O=c1c2nn(-c3ccccc3Cl)c(-c3ccc(Cl)cc3)c2ncn1N1CCCCC1', 'UniProt P21554', 'Not fulfilled'),
  ('O=c1c2nc(-c3ccccc3Cl)n(-c3ccc(Cl)cc3)c2ncn1CC(F)(F)F', 'UniProt P21554', 'Fulfilled');

Attention now turns to another entry.
Consider O=c1c2nn(-c3ccccc3Cl)c(-c3ccc(Cl)cc3)c2ccn1CC(F)(F)F . Does its Ki lie strictly below 4 nM?
Fulfilled

* * *

pKi tested on Cannabinoid receptor 2 (Homo sapiens): recorded values
pKi: −log10 of the molar value.

INSERT INTO assay_data (molecule, result) VALUES
  ('O=c1c2nn(-c3ccccc3Cl)c(-c3ccc(Cl)cc3)c2ncn1CC(F)F', '< 5.00');

For the compound Cc1nc2c(-c3ccc(Cl)cc3)n(-c3ccccc3Cl)nc2c(=O)n1CC(F)(F)F , what pKi is on record?
< 5.00

Another compound: O=c1c2nn(-c3ccccc3Cl)c(-c3ccc(Cl)cc3)c2cnn1CC(F)(F)F
< 5.00

Another compound: O=c1c2nn(-c3ccccc3Cl)c(-c3ccc(Cl)cc3)c2ccn1CC(F)(F)F
< 5.00

Another compound: O=c1c2nn(-c3ccccc3Cl)c(-c3ccc(Cl)cc3)c2ncn1Cc1ccccc1
< 5.00

* * *

# EXPERIMENT: Plasma clearance in Sprague-Dawley rat at 1 mg/kg, iv
# Type: ADME, organism-based
# Design: dose 1 mg/kg, route intravenous
A collection of compounds and their measured clearance
Answer with a number only, understood to be in L/h/kg.

INSERT INTO assay_data (molecule, numeric_value) VALUES
  ('Cc1nc2c(-c3ccc(Cl)cc3)n(-c3ccccc3Cl)nc2c(=O)n1CC(F)(F)F', 1.92);

Here is another compound to look at.
For the compound O=c1c2nn(-c3ccccc3Cl)c(-c3ccc(Cl)cc3)c2ncn1CC(F)(F)F , what clearance is on record?
2.7

* * *

# EXPERIMENTAL_TARGET: Cannabinoid receptor 2 (Homo sapiens, UniProt P34972)
# Sequence (P34972 whole entry): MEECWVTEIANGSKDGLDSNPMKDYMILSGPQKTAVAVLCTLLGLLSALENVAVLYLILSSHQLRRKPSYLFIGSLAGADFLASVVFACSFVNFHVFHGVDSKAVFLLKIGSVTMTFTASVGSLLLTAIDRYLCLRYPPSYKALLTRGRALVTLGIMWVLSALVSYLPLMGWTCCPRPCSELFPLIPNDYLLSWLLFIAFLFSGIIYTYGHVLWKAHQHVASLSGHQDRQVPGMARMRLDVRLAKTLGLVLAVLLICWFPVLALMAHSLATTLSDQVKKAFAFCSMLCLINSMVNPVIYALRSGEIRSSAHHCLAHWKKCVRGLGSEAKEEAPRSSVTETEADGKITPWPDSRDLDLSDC
VALUE_KIND: Ki

Sample answers from the record:
INSERT INTO results (molecule, value_kind, result) VALUES
  ('O=c1c2nn(-c3ccccc3Cl)c(-c3ccc(Cl)cc3)c2ncn1CCF', 'Ki', '> 10 µM'),
  ('CC(C)c1nc2c(-c3ccc(Cl)cc3)n(-c3ccccc3Cl)nc2c(=O)n1CC(F)(F)F', 'Ki', '> 10 µM');

Here is another molecule to look at.
For the molecule O=c1c2nn(-c3ccccc3Cl)c(-c3ccc(Cl)cc3)c2ncn1CC(F)(F)F , what Ki is on record?
> 10 µM

* * *

A collection of molecules and their measured half-life
# EXPERIMENT: Half life in Sprague-Dawley rat at 1 mg/kg, iv
# Type: ADME, organism-based
# Parameters: dose 1 mg/kg, route intravenous
# COND: in vivo
Enter the number, and then the unit.

INSERT INTO assay_data (molecule, result) VALUES
  ('O=c1c2nn(-c3ccccc3Cl)c(-c3ccc(Cl)cc3)c2ncn1CC(F)(F)F', '2.6 h');

Here is another molecule to look at.
For the molecule Cc1nc2c(-c3ccc(Cl)cc3)n(-c3ccccc3Cl)nc2c(=O)n1CC(F)(F)F , what half-life is on record?
4.7 h

* * *

# EXPERIMENT: Volume of distribution in Beagle dog at 0.5 mg/kg, iv
# Type: ADME, organism-based, Canis lupus familiaris
# Design: dose 0.5 mg/kg, route intravenous
# COND: in vivo, read-out: Vdss
VALUE_KIND: Vd (L/kg)
Answer with a number only, understood to be in L/kg.

INSERT INTO results (molecule, numeric_value) VALUES
  ('O=c1c2nn(-c3ccccc3Cl)c(-c3ccc(Cl)cc3)c2ncn1CC(F)(F)F', 10);

Here is another compound to look at.
For the compound Cc1nc2c(-c3ccc(Cl)cc3)n(-c3ccccc3Cl)nc2c(=O)n1CC(F)(F)F , what Vd is on record?
17
